Molecular target: D(2) dopamine receptor (Homo sapiens, UniProt P14416)
Sequence (P14416 whole entry): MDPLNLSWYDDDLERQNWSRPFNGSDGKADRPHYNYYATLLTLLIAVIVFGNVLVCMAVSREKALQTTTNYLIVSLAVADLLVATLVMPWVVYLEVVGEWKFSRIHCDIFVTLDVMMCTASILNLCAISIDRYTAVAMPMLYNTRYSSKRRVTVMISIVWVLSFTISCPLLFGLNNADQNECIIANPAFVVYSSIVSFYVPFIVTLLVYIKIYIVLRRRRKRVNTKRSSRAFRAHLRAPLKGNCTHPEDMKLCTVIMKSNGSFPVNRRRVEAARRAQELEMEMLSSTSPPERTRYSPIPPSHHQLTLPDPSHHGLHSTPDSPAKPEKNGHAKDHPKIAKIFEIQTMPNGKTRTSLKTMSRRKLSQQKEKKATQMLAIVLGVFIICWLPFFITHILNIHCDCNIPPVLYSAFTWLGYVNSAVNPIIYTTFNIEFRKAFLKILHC
Experiment: Displacement of [3H]N-methylspiperone from human dopamine D2 receptor expressed in HEK293 cell membranes after 1 hr by scintillation counting method
pKi: −log10 of the molar value.
Observable: pKi

P = O=C1CCc2ccccc2N1CCCN1CCC(c2ccccc2)CC1
Q = CCCC1CCN(CCCN2C(=O)CCc3ccccc32)CC1
[in] Lower pKi: P or Q ? Indicate your choice by writing its label.
[out] Q
(Q: 6.04, P: 6.34)

----------
Molecular target: Muscarinic acetylcholine receptor M1 (Homo sapiens)
Sequence (P11229 whole entry, the tested form may be a part): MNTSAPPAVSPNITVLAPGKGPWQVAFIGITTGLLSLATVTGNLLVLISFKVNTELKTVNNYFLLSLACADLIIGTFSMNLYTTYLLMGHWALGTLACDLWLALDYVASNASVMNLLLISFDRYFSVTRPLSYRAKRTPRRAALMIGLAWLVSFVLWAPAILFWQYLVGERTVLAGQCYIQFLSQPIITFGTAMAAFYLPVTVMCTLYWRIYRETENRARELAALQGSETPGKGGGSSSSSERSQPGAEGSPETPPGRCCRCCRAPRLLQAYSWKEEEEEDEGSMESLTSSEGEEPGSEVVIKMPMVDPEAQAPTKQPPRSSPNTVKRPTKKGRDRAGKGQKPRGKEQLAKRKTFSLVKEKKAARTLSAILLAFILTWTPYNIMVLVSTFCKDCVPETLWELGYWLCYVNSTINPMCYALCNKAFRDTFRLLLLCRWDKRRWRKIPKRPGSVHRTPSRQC
Experiment: Agonist activity at human SP/Myc epitope-tagged muscarinic M1 receptor expressed in HEK293T cells assessed as RLuc8-fused Galphaq activation after 2 mins by BRET assay
Entries and their EC50 values follow.
Just the number in nM, nothing appended.

smiles_text=O=C1CCc2ccccc2N1CCCN1CCN(c2ccccc2)CC1 observable=EC50 observed=646

Below: the item to evaluate.
[in] Supply recorded EC50 for O=C1CCc2ccccc2N1CCCN1CCC(Cc2ccccc2)CC1 here.
[out] 186

----------
Each entry below carries its reported Papp A→B at 1 h, 3 µM.
Tested on: MDR1
Experiment: Apparent passive permeability across apical to basolateral side in MDCK2 cells expressing MDR1 at 3 uM after 60 mins by mass spectroscopy
Assay type: ADME, cell-based, Canis lupus familiaris, MDCK-II
Details: dog, MDCK-MDR1
Enter your answer as a number in ×10⁻⁶ cm/s; do not include the unit.

smiles_text=O=C1CCc2ccccc2N1CCCN1CCN(c2ccccc2)CC1 observed=16.2

[in] Kindly indicate its recorded Papp A→B at 1 h, 3 µM. Item: O=C1CCc2ccccc2N1CCCN1CCC(Cc2ccccc2)CC1
[out] 10.9

----------
Experiment: AUClast in CD1 mouse brain at 3 mg/kg, sc by UPLC-MS analysis
Format: ADME, organism-based
Design: dose 3 mg/kg, time 0 - last, route subcutaneous
Observable: AUC(0-t) (ng·h/mL)
Numeric answer only, unit ng·h/mL assumed.

[in] Give the reported value of AUC(0-t) for this record: O=C1CCc2ccccc2N1CCCN1CCN(c2ccccc2)CC1
[out] 2380

----------
Here's a batch of compounds along with measured Ki for Sodium-dependent dopamine transporter (Rattus norvegicus).
Answer with a number only, understood to be in µM.

smiles_text=O=C1CCc2ccccc2N1CCCN1CCN(c2ccccc2)CC1 observed=8.71

Note: attention shifts to another entry.
[in] Return Ki for the following compound: O=C1CCc2ccccc2N1CCCN1CCC(Cc2ccccc2)CC1
[out] 0.447

----------
Molecular target: D(4) dopamine receptor (Homo sapiens)
Sequence (P21917 whole entry): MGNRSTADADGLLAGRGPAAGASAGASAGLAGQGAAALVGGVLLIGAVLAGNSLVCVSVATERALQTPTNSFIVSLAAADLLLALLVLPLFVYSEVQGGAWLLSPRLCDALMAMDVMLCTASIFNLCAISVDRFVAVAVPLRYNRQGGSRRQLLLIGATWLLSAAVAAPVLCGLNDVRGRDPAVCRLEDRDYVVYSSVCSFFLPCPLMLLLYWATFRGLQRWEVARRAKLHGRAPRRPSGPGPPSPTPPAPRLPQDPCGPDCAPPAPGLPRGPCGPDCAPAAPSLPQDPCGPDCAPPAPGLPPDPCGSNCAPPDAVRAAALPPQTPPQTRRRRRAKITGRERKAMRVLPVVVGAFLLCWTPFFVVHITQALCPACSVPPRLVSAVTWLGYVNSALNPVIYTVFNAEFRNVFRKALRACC
Assay: Agonist activity at human SP/Myc epitope-tagged dopamine D4 receptor expressed in HEK293T cells assessed as RLuc8-fused Galphai1 activation after 2 mins by BRET assay
Observable: pEC50
To interpret pEC50, take it as minus log10 of a concentration measured in moles per litre.

[in] Tell me pEC50 reported for O=C1CCc2ccccc2N1CCCN1CCN(c2ccccc2)CC1
[out] 9.80
